target: ΔF508-CFTR (Homo sapiens, UniProt P13569, DEL508-508); construct: host or cells: CFBE41o-, doxycycline-inducible; experiment: CFTR cell surface levels using HRP-tagged ΔF508-CFTR expressing CFBE cells, intrinsic corrector capacity; type: cell-based; settings: HRP-tagged ΔF508-CFTR expressing CFBE41o- cells; compound alone (intrinsic corrector capacity); 20 hours at 33° C.; read-out: EC50
Sequence (P13569 with tags, fused parts or gaps DEL508-508): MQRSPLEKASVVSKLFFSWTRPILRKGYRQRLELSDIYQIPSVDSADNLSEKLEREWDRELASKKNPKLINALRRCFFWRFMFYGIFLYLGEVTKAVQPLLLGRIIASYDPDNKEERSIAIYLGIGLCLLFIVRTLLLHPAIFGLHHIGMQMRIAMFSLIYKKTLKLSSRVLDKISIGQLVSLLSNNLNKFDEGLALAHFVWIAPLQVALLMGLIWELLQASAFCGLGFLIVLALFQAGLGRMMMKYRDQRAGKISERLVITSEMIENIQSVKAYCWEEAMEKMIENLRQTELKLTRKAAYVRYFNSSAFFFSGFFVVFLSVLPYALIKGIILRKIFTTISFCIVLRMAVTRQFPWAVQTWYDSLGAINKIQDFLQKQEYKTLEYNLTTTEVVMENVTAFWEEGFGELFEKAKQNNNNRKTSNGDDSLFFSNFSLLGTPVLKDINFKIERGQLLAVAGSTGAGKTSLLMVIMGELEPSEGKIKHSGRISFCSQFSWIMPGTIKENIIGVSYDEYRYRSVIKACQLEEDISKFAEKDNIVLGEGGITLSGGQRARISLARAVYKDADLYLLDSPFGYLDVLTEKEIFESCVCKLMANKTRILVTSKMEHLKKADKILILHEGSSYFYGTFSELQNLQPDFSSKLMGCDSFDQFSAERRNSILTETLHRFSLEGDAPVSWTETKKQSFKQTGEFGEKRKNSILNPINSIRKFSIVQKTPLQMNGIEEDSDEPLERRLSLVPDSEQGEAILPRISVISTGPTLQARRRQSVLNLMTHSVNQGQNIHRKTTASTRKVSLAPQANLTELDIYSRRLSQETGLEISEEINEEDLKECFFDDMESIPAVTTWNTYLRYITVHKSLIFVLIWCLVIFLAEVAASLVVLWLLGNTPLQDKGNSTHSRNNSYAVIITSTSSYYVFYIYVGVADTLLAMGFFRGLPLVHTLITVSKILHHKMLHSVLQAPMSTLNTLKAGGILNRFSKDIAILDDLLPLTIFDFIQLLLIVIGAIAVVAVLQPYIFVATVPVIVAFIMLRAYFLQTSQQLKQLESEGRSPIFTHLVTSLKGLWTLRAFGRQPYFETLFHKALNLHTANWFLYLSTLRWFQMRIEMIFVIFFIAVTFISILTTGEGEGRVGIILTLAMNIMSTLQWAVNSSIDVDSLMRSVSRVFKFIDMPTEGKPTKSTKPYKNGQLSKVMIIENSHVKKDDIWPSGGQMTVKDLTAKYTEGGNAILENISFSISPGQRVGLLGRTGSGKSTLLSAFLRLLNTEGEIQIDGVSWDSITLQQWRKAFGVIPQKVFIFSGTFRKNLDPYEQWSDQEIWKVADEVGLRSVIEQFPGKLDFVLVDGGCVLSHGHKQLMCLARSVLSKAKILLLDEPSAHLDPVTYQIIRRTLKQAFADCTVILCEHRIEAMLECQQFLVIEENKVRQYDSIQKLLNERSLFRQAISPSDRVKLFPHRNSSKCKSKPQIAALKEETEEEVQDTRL
Outcome Measure: pEC50
Scale: negative log10 of molar concentration, which is what pEC50 denotes.

# get_value(readout='pEC50', item= "COCC1CCN(c2cc(C(=O)NS(=O)(=O)C3CCNCC3)nc3c2c(C2CCC2)nn3-c2ccccc2)CC1" )
5.87

Any idea what its pEC50 is? The compound is "O=C(NS(=O)(=O)N1CC(F)C1)c1cc(N2CCC(N3CCOCC3)CC2)c2c(C3CCC3)nn(-c3ccc(F)cc3)c2n1"
6.95

For the compound "CN(C)S(=O)(=O)NC(=O)c1cc(N2CCC(N3CCN(C4CC4)CC3)CC2)c2c(C3CCC3)nn(-c3ccccc3)c2n1" , what pEC50 is on record?
6.63

Further cases:
# get_value(readout='pEC50', item= "CN(C)S(=O)(=O)NC(=O)c1cc(OCC2CCN(C3CCCCC3)CC2)c2c(C3CCC3)nn(-c3ccc(F)cc3)c2n1" )
6.38

Given the entry "CC(C)c1nn(-c2cccc(N3CCOCC3)n2)c2nc(C(=O)NS(C)(=O)=O)cc(-c3ccc(N4CCOCC4)cc3)c12" , report its measured pEC50.
6.29

Form field: reported pEC50 of "COCCN(C)C1CCN(c2cc(C(=O)NS(=O)(=O)N(C)C)nc3c2c(C2CCC2)nn3-c2ccc(F)cc2)CC1"
6.10

Returns the measured pEC50 for the input compound. Input: "CS(=O)(=O)NC(=O)c1cc(N2CC3(CCCCO3)C2)c2c(C3CCC3)nn(-c3ccccc3)c2n1"
5.99

###

Target: ΔF508-CFTR (Homo sapiens, UniProt P13569, DEL508-508)
Construct: host or cells: CFBE41o-, doxycycline-inducible
Experiment: CFTR cell surface levels using HRP-tagged ΔF508-CFTR expressing CFBE cells, in the presence of a co-corrector
Type: cell-based
Conditions: HRP-tagged ΔF508-CFTR CFBE cells, in the presence of 3 μM co-corrector; read-out: EC50
Excerpt: Measuring CFTR Cell Surface Levels Using HRP-Tagged ΔF508-CFTR Expressing CFBE Cells The HRP-tagged ΔF508-CFTR cell assay measures the expression of CFTR-ΔF508 at the plasma membrane. […] When HRP-tagged ΔF508-CFTR is present at the plasma membrane, the HRP enzyme activity can be measured. The amount of CFTR-ΔF508 that can be rescued to the plasma membrane is correlated with the amount of functional enzyme that can be measured. […]
Outcome Measure: pEC50
Quick note: pEC50 values are minus log10 of concentrations in mol/L.

Bench note: what pEC50 did CC(C)c1nn(-c2ccnc(N3CCOCC3)c2)c2nc(C(=O)NS(C)(=O)=O)cc(-c3ccc(N4CCOCC4)cc3)c12 [Compound 136] show?
7.14

GET /values?readout=pEC50&item= CC(C)c1nn(-c2ccc(F)cc2)c2nc(C(=O)NS(C)(=O)=O)cc(-c3cnc(N(C)C4CCOCC4)nc3)c12 [Compound 134]
6.63

Report pEC50 for CC(C)N1CCN(c2cc(C(=O)NS(C)(=O)=O)nc3c2c(C2CCC2)nn3-c2ccccc2)CC1 [Compound 270] please.
6.14

Fill in the blank: the reported pEC50 of CS(=O)(=O)NC(=O)c1cc(C2CCC(N3CCOCC3)CC2)c2c(C3CCC3)nn(-c3ccccc3)c2n1 (centres unmarked) [Compound 648] is ____.
6.96

Please look up its pEC50: CN1CCN(c2ccc(-c3cc(C(=O)NS(=O)(=O)N(C)C)nc4c3c(C3CCC3)nn4C3CCCCC3)cn2)CC1 [Compound 551]
6.42

What value of pEC50 has been reported for the following molecule? COC1CCCN(C2CCN(c3cc(C(=O)NS(C)(=O)=O)nc4c3c(C3CCC3)nn4-c3ccc(F)cc3)CC2)C1 (centres unmarked) [Compound 587]
6.40

Which pEC50 value is on record for Cc1cccc(-n2nc(C(C)C)c3c(N4CCCCC4)cc(C(=O)NS(C)(=O)=O)nc32)c1 [Compound 101] ?
6.39

For the molecule shown here, CCCN(C)S(=O)(=O)NC(=O)c1cc(N2CCC(COC)CC2)c2c(C3CCC3)nn(-c3ccccc3)c2n1 [Compound 391] , give the reported pEC50.
7.07

Entry CS(=O)(=O)NC(=O)c1cc(OCCCN2CCOCC2)c2c(C3CCC3)nn(-c3ccccc3)c2n1 [Compound 281] has what pEC50?
6.62

Which pEC50 is listed for CC(C1CCN(c2cc(C(=O)NS(=O)(=O)N(C)C)nc3c2c(C2CCC2)nn3-c2ccc(F)cc2)CC1)N1CCOCC1 (centres unmarked) [Compound 440] ?
7.26

Report pEC50 for O=C(NS(=O)(=O)C1CC1)c1cc(N2CCC(N3CCOCC3)CC2)c2c(C3CCC3)nn(-c3ccccc3)c2n1 [Compound 436] please.
7.15

Entry CS(=O)(=O)NC(=O)c1cc(N2CCC(CO)CC2)c2c(C3CCC3)nn(-c3ccccc3)c2n1 [Compound 244] : reported pEC50 = ?
6.38

Name the reported pEC50 value associated with the molecule CC(C)Oc1cc(-n2nc(C3CCC3)c3c(N4CCC(N5CCOCC5)CC4)cc(C(=O)NS(=O)(=O)N(C)C)nc32)ccn1 [Compound 529]
7.65

Param item = CC(C)c1nn(C2CCCCC2)c2nc(C(=O)NS(C)(=O)=O)cc(-c3ccc(N4CCOCC4)nc3)c12 [Compound 44] ; retrieve measured pEC50.
6.56
